Values were extracted from paper PMC3589368.

# Target Of Assay: MolyProbe (Escherichia coli, UniProt P0A9G8)
# Construct: gene modE
# Experiment Description: biochemical
Measurement Label: Ki (mM)
Value expressed in mM; do not type the unit.

For the compound O=C(O)O [bicarbonate] , give its measured Ki value.
33
